Values from ChEMBL document CHEMBL3817730

# test-method-notes: Cytotoxicity against human Ca9-22 cells assessed as inhibition of cell survival at 2 uM preincubated for 2 hrs followed by 0.5 Jcm'-2 UVA irradiation measured after 24 hrs by MTT assay relative to control
# Type: cell-based
# measurement-parameters: read-out: INH
experimental-readout: cytotoxicity at 24 h, 2 µM (%)

INSERT INTO results (structure_notation, reading) VALUES
  ('COc1ccc2nc(-c3ccc(-n4nnc5ccccc54)cc3)sc2c1', 20);

###

Below, each entry is listed with its recorded viability at 24 h, 5 µM.
# test-method-notes: Cytotoxicity against human Ca9-22 cells assessed as cell survival at 5 uM preincubated for 4 hrs followed by 1 Jcm'-2 UVA irradiation measured after 24 hrs by MTT assay relative to control
# Type: cell-based
# measurement-parameters: read-out: Survival
experimental-readout: viability at 24 h, 5 µM (%)

INSERT INTO measurements (structure_notation, experimental_readout, reading) VALUES
  ('CCc1ccc2nc(-c3ccc(-n4nnc5cc(OC)ccc54)cc3)sc2c1', 'viability at 24 h, 5 µM', 114),
  ('c1ccc2sc(-c3ccc(-n4nnc5ccccc54)cc3)nc2c1', 'viability at 24 h, 5 µM', 95.5),
  ('COc1ccc2c(c1)nnn2-c1ccc(-c2nc3ccccc3s2)cc1', 'viability at 24 h, 5 µM', 104),
  ('COc1ccc2c(c1)nnn2-c1ccc(-c2nc3ccccc3s2)cc1C', 'viability at 24 h, 5 µM', 79.6),
  ('CCc1ccc2nc(-c3ccc(-n4nnc5ccccc54)c(C)c3)sc2c1', 'viability at 24 h, 5 µM', 50.2),
  ('FC(F)(F)c1ccc2nc(-c3ccc(-n4nnc5ccccc54)cc3)sc2c1', 'viability at 24 h, 5 µM', 91.8),
  ('Cc1cc(-c2nc3ccccc3s2)ccc1-n1nnc2ccccc21', 'viability at 24 h, 5 µM', 48.6),
  ('COc1ccc2c(c1)nnn2-c1ccc(-c2nc3ccc(C(F)(F)F)cc3s2)cc1', 'viability at 24 h, 5 µM', 105),
  ('CCc1ccc2nc(-c3ccc(-n4nnc5cc(OC)ccc54)c(C)c3)sc2c1', 'viability at 24 h, 5 µM', 73.1),
  ('COc1ccc2c(c1)nnn2-c1ccc(-c2nc3ccc(OC)cc3s2)cc1C', 'viability at 24 h, 5 µM', 63.3);

###

# test-method-notes: Cytotoxicity against human Ca9-22 cells assessed as cell survival at 5 uM preincubated for 4 hrs followed by 1 Jcm'-2 UVA irradiation measured after 24 hrs by MTT assay relative to control
# Format: cell-based
# measurement-parameters: read-out: Survival
The reader will find reported viability at 24 h, 5 µM values listed item by item below.
experimental-readout: viability at 24 h, 5 µM (%)

INSERT INTO measurements (structure_notation, reading) VALUES
  ('COc1ccc2c(c1)nnn2-c1ccc(-c2nc3ccc(C(F)(F)F)cc3s2)cc1C', 113),
  ('COc1ccc2c(c1)nnn2-c1ccc(-c2nc3ccc(OC)cc3s2)cc1', 81.1),
  ('CCc1ccc2nc(-c3ccc(-n4nnc5ccccc54)cc3)sc2c1', 109),
  ('Cc1cc(-c2nc3ccc(C(F)(F)F)cc3s2)ccc1-n1nnc2ccccc21', 89.4),
  ('COc1ccc2nc(-c3ccc(-n4nnc5ccccc54)cc3)sc2c1', 44.1),
  ('COc1ccc2nc(-c3ccc(-n4nnc5ccccc54)c(C)c3)sc2c1', 82.1);
